test system: 621-103 (TSC2-rescued); assay: relative viability vs DMSO; higher = less cytotoxic; conditions: 0.0001 µM; serum: 10% FBS; 72 h;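 note: immortalized renal angiomyolipoma cells stably carrying empty vector or TSC2, dosed in 384-well plates in DMEM, viability normalized to vehicle-treated wells within each plate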
Property Label: relative viability (%)

molecule=COc1cc2c(Oc3ccc4[nH]c(C)cc4c3F)ncnc2cc1OCCCN1CCCC1 target_entity="621-103 (TSC2-rescued)" value_measured=81.9
molecule=CCC[C@H](N[C@@H](C)C(=O)N1[C@H](C(=O)O)C[C@@H]2CCCC[C@@H]21)C(=O)OCC target_entity="621-103 (TSC2-rescued)" value_measured=103
molecule=Cn1cc(CNCC2CCN(c3ncc(C(=O)NO)cn3)CC2)c2ccccc21 target_entity="621-103 (TSC2-rescued)" value_measured=91.4
molecule="C/C(=C\\c1csc(C)n1)[C@@H]1C[C@@H]2O[C@]2(C)CCC[C@H](C)[C@H](O)[C@@H](C)C(=O)C(C)(C)[C@@H](O)CC(=O)O1 [Epothilone B (EPIO906)]" target_entity="621-103 (TSC2-rescued)" value_measured=56.7
molecule=COc1cc(OC)c(/C=C/S(=O)(=O)Cc2ccc(OC)c(NCC(=O)O)c2)c(OC)c1 target_entity="621-103 (TSC2-rescued)" value_measured=101
molecule="CS(=O)(=O)CCNCc1ccc(-c2ccc3ncnc(Nc4ccc(OCc5cccc(F)c5)c(Cl)c4)c3c2)o1 [Lapatinib Ditosylate]" target_entity="621-103 (TSC2-rescued)" value_measured=97.3
molecule="Clc1ccc(C(Cn2ccnc2)OCc2c(Cl)cccc2Cl)c(Cl)c1 (stereo not drawn)" target_entity="621-103 (TSC2-rescued)" value_measured=104
molecule=Nc1cc(C(Cl)=C(Cl)Cl)c(S(N)(=O)=O)cc1S(N)(=O)=O target_entity="621-103 (TSC2-rescued)" value_measured=81.5
